The values you see were collected from patent US20120178701A1.

Biological target: T1, human recombinant melanocortin-3 receptor (human, UniProt P41968 1-323)
T1 construct: whole, on cells; Membrane homogenates of HEK-293 cells expressing the receptor; also called hMC3-R; MC3-R
T1 sequence (P41968 whole entry): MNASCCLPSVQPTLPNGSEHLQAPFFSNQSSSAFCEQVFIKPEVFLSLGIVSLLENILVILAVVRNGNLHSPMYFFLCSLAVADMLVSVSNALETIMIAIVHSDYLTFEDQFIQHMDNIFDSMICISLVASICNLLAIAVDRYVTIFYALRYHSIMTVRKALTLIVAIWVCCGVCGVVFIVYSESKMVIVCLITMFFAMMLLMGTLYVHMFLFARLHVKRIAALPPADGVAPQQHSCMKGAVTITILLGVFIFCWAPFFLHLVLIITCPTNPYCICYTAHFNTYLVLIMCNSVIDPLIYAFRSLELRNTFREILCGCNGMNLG
Test: competitive binding vs [I125]-NDP-α-MSH
Method: After incubation for 60 minutes at 37° C., the assay mixture was filtered and the membranes washed three times with ice-cold buffer. Filters were dried and counted in a gamma counter for bound radioactivity. […] Maximal specific binding (100%) was defined as the difference in radioactivity (cpm) bound to cell membranes in the absence and presence of 1 μM NDP-α-MSH. […] Ki values for test peptides of the present invention were determined using Graph-Pad Prism® curve-fitting software.
Bridge positions count the residues as written; N and C are the ends. Square brackets hold non-standard residues; d marks the D form.
Assay Readout: Ki (nM)
Field format: number, assumed nM, no unit text.

So what does the record say about Ki for Ac-RDQ[dF]RWK-NH2 (lactam 2-7, any difference is only in the drawings; also called peptide No. 32) [Ac-Arg-cyclo(Asp-Gln-D-Phe-Arg-Trp-Lys)-NH2] ? 340
